Source listed as paper PMC11633415.

Molecular target: chorismate synthase (CS) (Staphylococcus aureus, UniProt Q2FYG9)
Sequence (Q2FYG9 whole entry): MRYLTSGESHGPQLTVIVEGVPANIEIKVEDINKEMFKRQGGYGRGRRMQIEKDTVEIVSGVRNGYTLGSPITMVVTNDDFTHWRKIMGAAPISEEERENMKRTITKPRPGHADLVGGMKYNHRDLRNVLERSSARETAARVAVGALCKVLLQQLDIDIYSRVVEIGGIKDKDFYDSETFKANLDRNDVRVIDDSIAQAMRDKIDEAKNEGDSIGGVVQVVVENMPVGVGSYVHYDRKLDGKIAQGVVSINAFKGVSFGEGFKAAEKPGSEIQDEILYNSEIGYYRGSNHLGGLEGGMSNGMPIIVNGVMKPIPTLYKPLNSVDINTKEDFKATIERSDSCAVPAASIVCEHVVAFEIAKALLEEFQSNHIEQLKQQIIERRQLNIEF
MEASUREMENT NAME: pKd
# pKd = -log10(concentration in molar units)

Challenge: Recorded pKd of `Nc1cc(S(=O)(=O)O)cc2cc(S(=O)(=O)O)c(/N=N/c3cc([N+](=O)[O-])cc(Cl)c3O)c(O)c12` , please.
Response given: 5.43

====

Molecular target: chorismate synthase (CS) (Aquifex aeolicus)
Sequence (O66493 whole entry): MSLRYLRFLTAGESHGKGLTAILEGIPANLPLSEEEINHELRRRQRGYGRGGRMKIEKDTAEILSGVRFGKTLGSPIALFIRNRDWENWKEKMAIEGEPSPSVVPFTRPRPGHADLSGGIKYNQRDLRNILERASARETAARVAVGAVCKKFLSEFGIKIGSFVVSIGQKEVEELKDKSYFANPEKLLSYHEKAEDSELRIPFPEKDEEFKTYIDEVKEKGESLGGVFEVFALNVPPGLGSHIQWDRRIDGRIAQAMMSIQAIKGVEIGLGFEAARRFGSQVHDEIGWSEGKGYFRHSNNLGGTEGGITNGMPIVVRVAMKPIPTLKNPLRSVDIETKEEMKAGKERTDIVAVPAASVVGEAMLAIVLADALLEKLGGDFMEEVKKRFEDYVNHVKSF
MEASUREMENT NAME: Kd (µM)
Your answer is read as µM, so omit the unit and give the number.

Challenge: Recorded Kd of Nc1cc(S(=O)(=O)O)cc2cc(S(=O)(=O)O)c(/N=N/c3cc([N+](=O)[O-])cc(Cl)c3O)c(O)c12 [PH011669] , please.
Response given: 3.2
